Measured values drawn from ChEMBL document CHEMBL3045301 for this set.

# System under test: Human immunodeficiency virus type 1 integrase (Human immunodeficiency virus 1)
# Sequence (Q7ZJM1 whole entry): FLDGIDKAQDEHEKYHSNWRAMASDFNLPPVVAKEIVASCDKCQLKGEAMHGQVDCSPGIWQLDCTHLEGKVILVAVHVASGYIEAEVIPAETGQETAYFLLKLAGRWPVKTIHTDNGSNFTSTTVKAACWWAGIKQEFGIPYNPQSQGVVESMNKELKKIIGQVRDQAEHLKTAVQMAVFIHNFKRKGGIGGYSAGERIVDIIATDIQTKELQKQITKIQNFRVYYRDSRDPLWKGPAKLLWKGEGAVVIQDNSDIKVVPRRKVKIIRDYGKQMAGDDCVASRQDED
Readout type: pIC50
As a rule, pIC50 stands for the negative log10 of the concentration, concentration in M.

These solved cases illustrate the format of a correct answer.
| Smiles text | pIC50 |
| --- | --- |
| O=c1oc2cc(O)ccc2c(O)c1C(c1ccccc1)c1c(O)c2ccc(O)cc2oc1=O | 4.65 |
| O=c1oc2ccccc2c(O)c1-c1ccccc1-c1c(O)c2ccccc2oc1=O | 4.69 |
| Cn1cc(C(=O)/C=C(\O)C(=O)O)c2cc3c(cc21)OCO3 | 5.52 |

Response field pIC50 (Human immunodeficiency virus type 1 integrase (Human immunodeficiency virus 1)) for item CCn1c(C(=O)/C=C(\O)C(=O)O)cc2ccccc21 : 5.80

Response field pIC50 (Human immunodeficiency virus type 1 integrase (Human immunodeficiency virus 1)) for item O=c1oc2cc(O)ccc2c(O)c1C(c1cccnc1)c1c(O)c2ccc(O)cc2oc1=O : 4.60
